# target_or_test_system: leukotriene receptor
# assay_name: leukotriene receptor binding assay (RBL-1)
# recorded_conditions: Bruns et al
pIC50: −log10 of the molar value.
experimental_readout: pIC50

CCCCCCN1C(=O)C(=CC(=O)O)SC1=Nc1ccc(Cl)c(Cl)c1 ... 4.91
CCCCCCN1C(=O)C(=CC(=O)O)SC1=Nc1cccc2ccccc12 ... 4.99

* * *

Parameter pIC50: see the listing below.
# target_or_test_system: leukotriene receptor
# assay_name: leukotriene receptor binding assay (RBL-1)
# recorded_conditions: Bruns et al
pIC50: −log10 of the molar value.

Answered cases to consult:
COc1cccc(N=C2SC(=CC(=O)O)C(=O)N2c2cccc(OC)c2)c1 ... < 4.00
COc1cc(N=C2SC(=CC(=O)O)C(=O)N2c2cc(OC)c(OC)c(OC)c2)cc(OC)c1OC ... < 4.00
CCN=C1SC(=CC(=O)O)C(=O)N1CC ... < 4.00
O=C(O)C=C1SC(=NCCc2ccccc2)N(CCc2ccccc2)C1=O ... < 4.00
COc1ccccc1N=C1SC(=CC(=O)O)C(=O)N1c1ccccc1OC ... < 4.00
CCCCCCCCCCCN=C1SC(=CC(=O)O)C(=O)N1CCCCCCCCCCC ... < 4.00

pIC50 reported for this compound "O=C(O)C=C1SC(=NC2CCCCC2)N(C2CCCCC2)C1=O" : 4.20

Lookup result for "CCCN=C1SC(=CC(=O)O)C(=O)N1CCC" ; measured pIC50: < 4.00

pIC50 in this record for "CCCCCCN=C1SC(=CC(=O)O)C(=O)N1CCCCCC" : 4.61

Recorded result, "CCCCN=C1SC(=CC(=O)O)C(=O)N1CCCC" , pIC50: < 4.00

Per the records, this compound ( "COc1ccc(N=C2SC(=CC(=O)O)C(=O)N2c2ccc(OC)cc2)cc1" ) has pIC50 equal to < 4.00

// pIC50 value for "CCCCCCCCN=C1SC(=CC(=O)O)C(=O)N1CCCCCCCC" : 4.72

Data point: "CN1C(=O)C(=CC(=O)O)SC1=Nc1ccc(Cl)c(Cl)c1" ; pIC50 = < 4.00
